Reported Percentage inhibition α-D-Glucosidase Rat Intestine values are given for each entry in this list.
# Test system: α-D-glucosidase (rat intestine)
# assay.info: Glycosidase inhibition (Table 3 panel)
# Assay type: biochemical
# measurement.parameters: 1 mg/mL aqueous solution; run in water
reported.endpoint: Percentage inhibition α-D-Glucosidase Rat Intestine (%)

smiles | test.result
CC1(C)O[C@H]2O[C@H]3[C@@H]([C@H]2O1)N(Cc1ccccc1B(O)O)C[C@H]3O | 4.2
CC1(C)O[C@H]2O[C@H]3[C@@H]([C@H]2O1)N(Cc1cccc(O)c1)C[C@H]3O | 4.8
CC1(C)O[C@H]2O[C@H]3[C@@H]([C@H]2O1)N(Cc1cccc(B(O)O)c1)C[C@H]3O | 11.6
OC[C@H](O)[C@@H]1[C@H](O)[C@H](O)CN1Cc1cccc(B(O)O)c1 | 41.1

Data provenance is paper PMC12655172.
